Measured values drawn from patent US8022099B2 for this set.

Biological target: human NK3 receptor (Homo sapiens, UniProt P29371)
Sequence (P29371 1-465): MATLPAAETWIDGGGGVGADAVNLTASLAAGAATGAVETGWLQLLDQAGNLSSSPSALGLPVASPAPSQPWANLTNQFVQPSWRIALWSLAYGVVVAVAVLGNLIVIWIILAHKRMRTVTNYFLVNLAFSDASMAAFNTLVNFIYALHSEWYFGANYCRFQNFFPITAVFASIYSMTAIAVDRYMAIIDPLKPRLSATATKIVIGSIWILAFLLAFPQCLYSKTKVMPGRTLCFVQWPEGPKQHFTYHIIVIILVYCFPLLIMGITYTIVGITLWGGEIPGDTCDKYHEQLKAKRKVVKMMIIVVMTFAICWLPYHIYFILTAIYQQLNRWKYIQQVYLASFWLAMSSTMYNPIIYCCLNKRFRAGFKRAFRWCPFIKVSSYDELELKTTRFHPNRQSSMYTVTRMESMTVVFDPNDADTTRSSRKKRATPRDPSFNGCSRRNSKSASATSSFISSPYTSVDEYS
Experiment: [3H]SR142801 competition binding assay
Conditions: hNK3 receptor binding, [3H]SR142801, membranes from HEK293 cells transiently expressing recombinant human NK3 receptor
Experimental: [^3H]SR142801 Competition Binding Assay hNK3 receptor binding experiment were performed using [^3H]SR142801 (Catalog No. TRK1035, specific activity: 74.0 Ci/mmol, Amersham, GE Healthcare UK limited, Buckinghamshire, UK) and membrane isolated from HEK293 cells transiently expressing recombinant human NK3 receptor. […] Nonspecific binding was measured in the presence of 10 μM SB222200 for both radioligands. […]
observed.property: pKi
Convention used: pKi is expressed as -log10 of the molar concentration.

{"columns": ["compound", "pKi"],
 "data": [
  ["CN(Cc1ccc(C(F)(F)F)c(F)c1)[C@H]1CN(C(=O)N2CCC(O)(c3ccncc3)CC2)C[C@@H]1c1ccc(Cl)c(Cl)c1 (racemic)", 7.68],
  ["CN(Cc1ccc(C(F)(F)F)c(F)c1)[C@H]1CN(C(=O)N2CCN(S(C)(=O)=O)CC2)C[C@@H]1c1ccc(Cl)c(F)c1 (racemic)", 7.84]
]}

Could you now look at the following compound, please?
Sample CC(=O)N1CCN(CC(=O)N2C[C@H](c3ccc(Cl)c(Cl)c3)[C@@H](N(C)Cc3ccc(C(F)(F)F)c(F)c3)C2)CC1 (racemic) — what was its pKi?
8.06

====

The entries below are paired with their reported Ki.
Biological target: human NK3 receptor (Homo sapiens)
Construct: expressed in transfected cells; host or cells: HEK293 cells (transient expression), membrane preparation
Test: [3H]SR142801 competition binding assay
Conditions: hNK3 receptor binding, [3H]SR142801, membranes from HEK293 cells transiently expressing recombinant human NK3 receptor
State just the number; it will be interpreted in nM.

{"columns": ["compound", "Ki [nM]"],
 "data": [
  ["CN(C)C1CCN(CC(=O)N2C[C@H](c3ccc(Cl)c(Cl)c3)[C@@H](N(C)Cc3ccc(C(F)(F)F)c(F)c3)C2)CC1 (racemic)", 18.9],
  ["CN(Cc1ccc(C(F)(F)F)c(F)c1)[C@H]1CN(C(=O)N2CCN(c3ccncc3)CC2)C[C@@H]1c1ccc(Cl)c(Cl)c1 (racemic)", 5.9],
  ["CN(Cc1ccc(C(F)(F)F)c(F)c1)[C@H]1CN(C(=O)N2CCN(c3ncccc3C#N)CC2)C[C@@H]1c1ccc(Cl)c(Cl)c1", 13.4],
  ["CN(C)CCNCC(=O)N1C[C@H](c2ccc(Cl)c(Cl)c2)[C@@H](N(C)Cc2ccc(C(F)(F)F)c(F)c2)C1 (racemic)", 96.4],
  ["CN(Cc1ccc(C(F)(F)F)c(F)c1)[C@H]1CN(C(=O)CN2CCC(C#N)CC2)C[C@@H]1c1ccc(Cl)c(Cl)c1 (racemic)", 25.4],
  ["CN(Cc1ccc(C(F)(F)F)c(F)c1)[C@H]1CN(C(=O)N2CCN(S(C)(=O)=O)CC2)C[C@@H]1c1ccc(Cl)c(Cl)c1 (racemic)", 8.3],
  ["CN(Cc1ccc2cc[nH]c2c1)[C@H]1CN(C(=O)N2CCN(S(C)(=O)=O)CC2)C[C@@H]1c1ccc(Cl)c(Cl)c1 (racemic)", 69.1],
  ["CN(Cc1ccc(Cl)c(Cl)c1)[C@H]1CN(C(=O)N2CCN(S(C)(=O)=O)CC2)C[C@@H]1c1ccc(Cl)c(Cl)c1 (racemic)", 33.3]
]}

Sample CN(Cc1ccc(C(F)(F)F)c(F)c1)[C@H]1CN(C(=O)C2CCN(C(=O)C3(C)CC3)CC2)C[C@@H]1c1ccc(Cl)c(Cl)c1 (racemic) — what was its Ki?
3.1

Sample CC(=O)NC1CCN(CCCCC(=O)N2C[C@H](c3ccc(Cl)c(Cl)c3)[C@@H](N(C)Cc3ccc(C(F)(F)F)c(F)c3)C2)CC1 (racemic) — what was its Ki?
62.2

Sample CN(Cc1ccc(C(F)(F)F)c(F)c1)[C@H]1CN(C(=O)CN2CCN(S(=O)(=O)N(C)C)CC2)C[C@@H]1c1ccc(Cl)c(Cl)c1 (racemic) — what was its Ki?
16.9

Sample CN(Cc1ccc(C(F)(F)F)cc1)[C@H]1CN(C(=O)CCCCN2CCOCC2)C[C@@H]1c1ccc(Cl)c(Cl)c1 (racemic) — what was its Ki?
15.5
